system.under.test: human CRM1 (HsCRM1), wild type (human, UniProt O14980 1-1071)
Sequence (O14980 whole entry): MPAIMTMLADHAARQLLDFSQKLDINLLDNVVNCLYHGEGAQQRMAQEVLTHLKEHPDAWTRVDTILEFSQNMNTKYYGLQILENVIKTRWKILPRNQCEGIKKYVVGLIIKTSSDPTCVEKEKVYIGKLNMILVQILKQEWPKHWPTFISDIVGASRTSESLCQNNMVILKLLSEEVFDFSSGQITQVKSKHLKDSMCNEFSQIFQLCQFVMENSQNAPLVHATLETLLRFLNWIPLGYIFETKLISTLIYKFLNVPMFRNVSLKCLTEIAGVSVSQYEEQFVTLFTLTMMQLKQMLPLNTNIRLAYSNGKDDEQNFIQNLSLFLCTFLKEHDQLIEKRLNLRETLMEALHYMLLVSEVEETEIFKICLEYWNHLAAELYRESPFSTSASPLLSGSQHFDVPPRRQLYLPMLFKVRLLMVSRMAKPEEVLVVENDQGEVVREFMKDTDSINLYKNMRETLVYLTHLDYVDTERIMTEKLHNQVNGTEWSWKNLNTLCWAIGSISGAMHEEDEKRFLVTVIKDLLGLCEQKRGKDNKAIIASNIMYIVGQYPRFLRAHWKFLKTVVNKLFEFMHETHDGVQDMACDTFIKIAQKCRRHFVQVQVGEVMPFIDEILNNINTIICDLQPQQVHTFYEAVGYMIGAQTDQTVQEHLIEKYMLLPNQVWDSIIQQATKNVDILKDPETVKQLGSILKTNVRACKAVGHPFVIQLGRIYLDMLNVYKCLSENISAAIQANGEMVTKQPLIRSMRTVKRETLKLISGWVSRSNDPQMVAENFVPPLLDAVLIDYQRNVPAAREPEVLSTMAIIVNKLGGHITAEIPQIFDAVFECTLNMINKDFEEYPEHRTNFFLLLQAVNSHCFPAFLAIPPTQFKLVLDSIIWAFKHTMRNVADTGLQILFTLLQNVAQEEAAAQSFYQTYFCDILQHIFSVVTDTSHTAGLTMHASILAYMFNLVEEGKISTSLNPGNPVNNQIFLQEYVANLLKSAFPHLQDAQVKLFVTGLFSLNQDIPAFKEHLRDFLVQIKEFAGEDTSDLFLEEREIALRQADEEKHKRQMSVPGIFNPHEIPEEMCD
protocol.details: direct titration, PKI WT set
assay.metric: pKd
pKd here is simply -log10 of the concentration when that concentration is written in mol/L.

Incoming: Request the reported pKd associated with NSNELALKLAGLDINKT (FITC label (FITC-PKI^NES)) [FITC-PKI NES (NES of Protein Kinase A Inhibitor, wild type)]
Outgoing: 7.54
